FYI, the data here is from patent US20210238169A1.

Procedure summary: Cell viability: resazurin assay
Type: cell-based, human
Particulars: human, BEAS2B cells; n = 1-5
Measure name: CC50 at 1 day

Molecule: CC[C@@H]([C@H](C)O)n1ncn(-c2ccc(N3CCN(c4ccc(OC[C@@H]5CO[C@@](Cn6cncn6)(c6ccc(F)cc6F)C5)cc4)CC3)cc2)c1=O
Result: > 14.3 µM

Molecule: [2H]c1c([2H])c(NC(=O)c2ccc(N3CCN(c4ccc(OC[C@@H]5CO[C@@](Cn6cncn6)(c6ccc(F)cc6F)C5)c(C)c4)CC3)cc2)c([2H])c([2H])c1F [Compound (I)•4[^2H]]
Result: > 14.6 µM

Molecule: Cc1cc(N2CCN(c3ccc(C(=O)Nc4ccc(F)cc4)cc3)CC2)ccc1OC[C@@H]1CO[C@@](Cn2cncn2)(c2ccc(F)cc2F)C1
Result: > 12.2 µM
